biological target: Ornithine decarboxylase (Mus musculus) (UniProt P00860); test: Inhibition of the induction of ornithine decarboxylase in mouse epidermis by the tumor promoter 12-O-tetradecanoylphorbol-13-acetate (ODC) at dose 1.7 nmol
Sequence (P00860 whole entry): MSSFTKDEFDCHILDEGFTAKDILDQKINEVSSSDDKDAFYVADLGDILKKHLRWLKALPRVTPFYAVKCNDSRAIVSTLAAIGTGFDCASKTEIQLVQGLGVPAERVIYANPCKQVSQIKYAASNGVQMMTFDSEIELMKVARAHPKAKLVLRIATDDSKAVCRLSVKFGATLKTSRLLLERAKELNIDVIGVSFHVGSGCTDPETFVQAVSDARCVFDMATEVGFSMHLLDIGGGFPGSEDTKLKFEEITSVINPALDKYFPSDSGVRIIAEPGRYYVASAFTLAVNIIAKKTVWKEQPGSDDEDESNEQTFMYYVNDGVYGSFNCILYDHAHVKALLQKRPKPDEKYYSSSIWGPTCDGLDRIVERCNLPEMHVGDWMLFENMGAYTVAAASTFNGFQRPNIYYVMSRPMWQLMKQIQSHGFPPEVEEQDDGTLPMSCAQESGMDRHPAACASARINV
# label = T if inhibition >= 40% else F

1) C/C(=C\c1ccc(C(=O)O)cc1)c1ccc2c(c1)C(C)(C)CCO2 | T
2) CC1=C(c2ccc(-c3ccc(C(=O)O)cc3)cc2)C(C)(C)CCC1 | F
3) CC1=C(/C=C/C(C)=C/c2ccc(C(=O)O)cc2)C(C)(C)CCC1 | T
4) CC1=C(CC/C(C)=C/c2ccc(C(=O)O)cc2)C(C)(C)CCC1 | T

**Q:** Evaluate CC1=C(/C=C/C(C)=C/C=C/c2ccc(C(=O)O)cc2)C(C)(C)CCC1 [PELRETIN] : inhibition at minimum 40%?
**A:** F

Origin of measurements: ChEMBL document CHEMBL1122522
